# systemTested: Estrogen receptor (Homo sapiens) (UniProt P03372)
# Sequence (P03372 whole entry, looked up): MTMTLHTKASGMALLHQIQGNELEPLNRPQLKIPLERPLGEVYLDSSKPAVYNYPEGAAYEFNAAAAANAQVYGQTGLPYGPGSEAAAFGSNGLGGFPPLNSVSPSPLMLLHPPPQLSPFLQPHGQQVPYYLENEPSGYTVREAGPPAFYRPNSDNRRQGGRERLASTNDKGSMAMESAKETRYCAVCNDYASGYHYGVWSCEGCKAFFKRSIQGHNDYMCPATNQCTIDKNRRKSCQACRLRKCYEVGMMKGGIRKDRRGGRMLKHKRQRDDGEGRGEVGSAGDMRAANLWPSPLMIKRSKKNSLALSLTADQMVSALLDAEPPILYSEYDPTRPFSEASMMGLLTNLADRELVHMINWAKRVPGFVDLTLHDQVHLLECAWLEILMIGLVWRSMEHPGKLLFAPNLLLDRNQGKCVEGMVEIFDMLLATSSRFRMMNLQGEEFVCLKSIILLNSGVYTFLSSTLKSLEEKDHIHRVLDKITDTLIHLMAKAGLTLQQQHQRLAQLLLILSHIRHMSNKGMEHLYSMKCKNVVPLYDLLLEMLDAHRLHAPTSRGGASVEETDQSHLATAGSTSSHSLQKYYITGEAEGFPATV
# assaySummary: qHTS assay to identify small molecule agonists of the estrogen receptor alpha (ER-alpha) signaling pathway using the BG1 cell line (AID 743079); also: nearly all actives have a fitted effect of over 20% in size
# conditionSummary: BG1Luc4E2 cells, ERE-luciferase agonist, 22 h
Inconclusive results are not listed. Calls of active or inactive are those of the source. Calls follow the shape of the dose curve; as a rule, active = well fitted activation curve with a large enough effect in the repeat runs; inconclusive = weak or mixed curves, or effect the other way; inactive = no such curve, though single readings can be large or run the other way.
Labels: active, inactive

{"molecule": "COc1ccc(CCNC[C@H](O)c2ccc(O)cc2)cc1OC", "category": "inactive"}
{"molecule": "O=C(OC[C@H]1O[C@](O)(COC(=O)c2cccnc2)[C@@H](OC(=O)c2cccnc2)[C@@H]1OC(=O)c1cccnc1)c1cccnc1", "category": "inactive"}
{"molecule": "C[C@]12CCC(=O)C[C@@H]1CC[C@@H]1[C@@H]2CC[C@]2(C)C=CC[C@@H]12", "category": "active"}
{"molecule": "CCOC(=O)[C@H](CS)NCCN[C@@H](CS)C(=O)OCC", "category": "inactive"}
{"molecule": "COC(=O)[C@H]1[C@H]2C[C@@H]3c4[nH]c5cc(OC)ccc5c4CCN3C[C@H]2C[C@H](OC)[C@@H]1OC", "category": "inactive"}
{"molecule": "COc1ccc(C[C@H](C)NC[C@@H](O)c2ccc(O)c(NC=O)c2)cc1", "category": "inactive"}
{"molecule": "CNCC(O)c1ccc(OC(=O)C(C)(C)C)c(OC(=O)C(C)(C)C)c1 (centres undefined)", "category": "inactive"}
{"molecule": "O=c1oc2cc(O)ccc2s1", "category": "inactive"}
{"molecule": "CCOC(=O)CN[C@@H](C(=O)N1CC[C@H]1C(=O)NCc1ccc(/C(N)=N/O)cc1)C1CCCCC1", "category": "inactive"}
